// provenance: ChEMBL document CHEMBL5055646

Molecular target: UniProt Q06187
Sequence (Q06187 whole entry, the tested form may be a part): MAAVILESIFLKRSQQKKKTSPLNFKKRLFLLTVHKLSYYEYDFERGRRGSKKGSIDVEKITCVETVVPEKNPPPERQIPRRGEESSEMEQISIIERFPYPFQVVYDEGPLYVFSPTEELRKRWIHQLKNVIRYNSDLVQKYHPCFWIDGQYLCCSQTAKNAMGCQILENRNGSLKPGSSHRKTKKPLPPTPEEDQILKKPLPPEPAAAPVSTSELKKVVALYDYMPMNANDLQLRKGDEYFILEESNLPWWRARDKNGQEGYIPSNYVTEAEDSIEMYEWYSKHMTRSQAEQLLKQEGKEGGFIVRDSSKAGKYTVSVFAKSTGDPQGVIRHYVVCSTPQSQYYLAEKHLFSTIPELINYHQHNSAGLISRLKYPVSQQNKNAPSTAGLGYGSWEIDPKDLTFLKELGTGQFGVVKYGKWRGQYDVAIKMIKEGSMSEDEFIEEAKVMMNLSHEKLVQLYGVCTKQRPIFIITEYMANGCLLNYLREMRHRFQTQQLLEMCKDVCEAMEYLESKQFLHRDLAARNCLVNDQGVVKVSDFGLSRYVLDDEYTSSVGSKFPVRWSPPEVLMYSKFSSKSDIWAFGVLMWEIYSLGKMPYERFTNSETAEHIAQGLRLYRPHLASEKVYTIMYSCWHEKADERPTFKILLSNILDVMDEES
Experiment: Inhibition of full length N-terminal GST fusion tagged human BTK expressed in baculovirus expression system at 500 nM using FAM-P2 peptide solution as substrate incubated for 10 mins in presence of ATP by microplate reader assay
MEASURED_PARAMETER: inhibition (%)
Write the answer as a number in %, unit excluded.

In: Quick one: inhibition of O=C1CCC(N2C(=O)c3cccc(NCCOCCOCCOCCNC(=O)N[C@H]4CC[C@@H](Nc5ncnc6[nH]cc(C(=O)c7ccc(Oc8ccccc8)cc7Cl)c56)CC4)c3C2=O)C(=O)N1 (stereo partly specified) ?
Out: 95.2

In: Quick one: inhibition of O=C(O)CNc1ncnc2[nH]cc(C(=O)c3ccc(Oc4ccccc4)cc3Cl)c12 ?
Out: 85.1

In: Quick one: inhibition of O=C1CCC(N2C(=O)c3cccc(NCCCCNC(=O)N[C@H]4CC[C@@H](Nc5ncnc6[nH]cc(C(=O)c7ccc(Oc8ccccc8)cc7Cl)c56)CC4)c3C2=O)C(=O)N1 (stereo partly specified) ?
Out: 96.2

More entries:
In: Quick one: inhibition of O=C1CCC(N2C(=O)c3cccc(NCCOCCOCCOCCOCCOCCNC(=O)N[C@H]4CC[C@@H](Nc5ncnc6[nH]cc(C(=O)c7ccc(Oc8ccccc8)cc7Cl)c56)CC4)c3C2=O)C(=O)N1 (stereo partly specified) ?
Out: 90

In: Quick one: inhibition of O=C(CNc1ncnc2[nH]cc(C(=O)c3ccc(Oc4ccccc4)cc3Cl)c12)NCCCCNc1cccc2c1C(=O)N(C1CCC(=O)NC1=O)C2=O (stereo unspecified) ?
Out: 9.3

In: Quick one: inhibition of O=C(CNc1ncnc2[nH]cc(C(=O)c3ccc(Oc4ccccc4)cc3Cl)c12)NCCOCCOCCOCCNc1cccc2c1C(=O)N(C1CCC(=O)NC1=O)C2=O (stereo unspecified) ?
Out: 21.6
